target: GRPR (Homo sapiens); construct: purchased Promega (in-house HiBiT-GPCR construct library, NanoBRET); experiment: NanoBRET screen HiBiT-GRPR in HEK293; type: binding; details: GRPR; tracer 0.1μM
Sequence (P30550 whole entry): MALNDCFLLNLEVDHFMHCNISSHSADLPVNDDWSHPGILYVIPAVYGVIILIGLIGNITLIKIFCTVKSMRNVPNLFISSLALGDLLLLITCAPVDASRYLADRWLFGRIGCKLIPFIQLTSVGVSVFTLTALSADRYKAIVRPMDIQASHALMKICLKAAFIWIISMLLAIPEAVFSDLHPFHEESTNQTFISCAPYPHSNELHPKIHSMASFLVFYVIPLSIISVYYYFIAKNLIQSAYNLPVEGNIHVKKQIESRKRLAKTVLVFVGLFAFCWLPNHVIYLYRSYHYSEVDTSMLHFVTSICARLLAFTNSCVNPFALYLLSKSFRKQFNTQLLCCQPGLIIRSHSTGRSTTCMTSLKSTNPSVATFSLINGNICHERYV
Could you please mark t for values of NanoBRET Fold Response below 0.9 and f for values at or above it?

compound="O=C(CCc1ccc2n1[B-](F)(F)[N+]1=C(c3ccc[nH]3)C=CC1=C2)NCCOCCOCCNC(=O)OCCOCCN1CCN(C2=Nc3ccccc3Sc3ccccc32)CC1 [Quetiapine-a-2-NB590]" group_label=t
compound="CC(C)N(CC[C@H](c1ccccc1)c1cc(CCNC(=O)c2ccc(CNC(=O)CCc3ccc4n3[B-](F)(F)[N+]3=C(c5ccc[nH]5)C=CC3=C4)cc2)ccc1O)C(C)C [Tolterodine-BZ-NB590]" group_label=t
compound="N#CN=C(NCCCOc1cccc(CN2CCCCC2)c1)NCCNC(=O)CCOCCOCCOCCOCCNC(=O)CCc1ccc2n1[B-](F)(F)[N+]1=C(c3ccc[nH]3)C=CC1=C2 [Aminopotentidine-2-NB590]" group_label=f
compound="O=C(CCOCCOCCOCCOCCNC(=O)CCc1ccc2n1[B-](F)(F)[N+]1=C(c3ccc[nH]3)C=CC1=C2)NCCCN1CCN(C2=Nc3ccccc3Oc3ccc(Cl)cc32)CC1 [Loxapine-a-2-NB590]" group_label=f
compound="COc1ccccc1N1CCN(CCCCN2C(=O)c3ccc(CNC(=O)CCOCCNC(=O)c4ccc(CNC(=O)CCc5ccc6n5[B-](F)(F)[N+]5=C(c7ccc[nH]7)C=CC5=C6)cc4)cc3C2=O)CC1 [NAN-190-3-NB590]" group_label=t
